Target protein (sequence): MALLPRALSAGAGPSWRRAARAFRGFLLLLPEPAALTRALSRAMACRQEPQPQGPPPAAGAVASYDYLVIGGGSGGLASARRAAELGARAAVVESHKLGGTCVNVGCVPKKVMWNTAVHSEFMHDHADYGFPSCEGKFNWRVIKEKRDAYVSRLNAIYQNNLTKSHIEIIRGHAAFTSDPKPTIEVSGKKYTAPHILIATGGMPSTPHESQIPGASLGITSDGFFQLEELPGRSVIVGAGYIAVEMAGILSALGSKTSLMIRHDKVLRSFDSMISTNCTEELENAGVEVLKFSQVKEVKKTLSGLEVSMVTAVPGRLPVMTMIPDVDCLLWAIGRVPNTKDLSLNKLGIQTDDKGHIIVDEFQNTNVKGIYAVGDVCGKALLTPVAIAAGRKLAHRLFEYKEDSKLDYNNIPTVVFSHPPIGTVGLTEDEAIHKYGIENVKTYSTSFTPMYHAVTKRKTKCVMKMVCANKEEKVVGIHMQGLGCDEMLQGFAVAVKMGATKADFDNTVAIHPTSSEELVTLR
pKi: −log10 of the molar value. Structures can show the parent of a compound that is named as a salt.
quantityKind: pKi

compound: OC(CNc1ccccn1)c1ccccc1 (configuration not stated) [Phenyramidol-HCl]
observed: 3.36
//
compound: O=C(O)CN(CCN(CC(=O)O)CC(=O)O)CCN(CC(=O)O)CC(=O)O
observed: 1.54
